Tested on: Phospho-Rb Ser807/811 in OVCAR3 cells
EXPERIMENT: OVCAR3 Phospho-Rb Ser807/811 HTRF assay
Assay type: cell-based
MEASUREMENT CONTEXT: Homo sapiens, OVCAR-3, 1 h, OVCAR3 cells, Phospho-Rb Ser807/811 HTRF, 1 hour incubation; read-out: pRb-OVCAR3 IC50
Provide the reported pIC50 of each item.
Numbers only, as −log10 of the molar value.

>>> assay_result("Cc1cc(O)c(C=O)c(OCC(=O)Nc2cc([C@H]3CC[C@@H](OC(=O)N4CCC4(C)C)C3)[nH]n2)c1")
7.43
>>> assay_result("CC(C)NC(=O)O[C@@H]1CC[C@H](c2cc(NC(=O)c3ccc(C=O)c4[nH]ncc34)n[nH]2)C1")
5.95
>>> assay_result("CC(C)NC(=O)O[C@@H]1CC[C@H](c2cc(NC(=O)c3cc(-c4cccc(O)c4C=O)nn3C)n[nH]2)C1 [Compound 17, 2,2,2-trifluoroacetate]")
6.65
>>> assay_result("CCCNC(=O)O[C@@H]1CC[C@H](c2cc(NC(=O)COc3cc(OC)cc(O)c3C=O)n[nH]2)C1")
7.62
>>> assay_result("COc1cc(O)c(C=O)c(Oc2ccnc(Nc3cc([C@H]4CC[C@@H](OC(=O)NC(C)C)C4)[nH]n3)c2)c1")
6.51

Look at each molecule and report its pIC50.
1. CC(=O)Nc1cccc(OCC(=O)Nc2cc([C@H]3CC[C@@H](OC(=O)NC(C)C)C3)[nH]n2)c1C=O
2. COc1cc(O)c(C=O)c(OCC(=O)Nc2cc([C@H]3CC[C@@H](OC(=O)N(C(C)C)C(C)C)C3)[nH]n2)c1

Solution:
1. 5.62
2. 7.44
